- System under test: Inadl_6, Q8NI35
- Sequence (Q8NI35 1058-1167): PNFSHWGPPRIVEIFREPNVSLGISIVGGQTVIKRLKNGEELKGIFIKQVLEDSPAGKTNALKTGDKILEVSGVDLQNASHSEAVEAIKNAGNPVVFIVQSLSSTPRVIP
- Run description: holdup assay
- Set-up: key: below the threshold = too weak to quantify, mostly under pKd 3.1 to 4
- Condition context: plain residues with an end cap or a label only (N-terminal biotin on a linker: ado-ado)
Each entry below carries its reported pKd.
Format: numeric value only, no unit, no commentary.

1) EIPAQSPTCV [FZD10, Q9ULW2]
3.7

**Query** Bench note: what pKd did DGVNEKVSCV [HTR2A, P28223] show?
**Result** 3.57
